Collected MIC values appear next to each entry.
Test system: Pseudomonas aeruginosa
Assay details: MBEC assay: sessile (biofilm) MIC of antibiotics in absence and presence of LMS-611
Assay type: cell-based
Conditions used: Pseudomonas aeruginosa, PA14, PA strain PA14; antibiotic alone
Write it as a number; the unit µg/mL goes unstated.

Lookup: Look up MIC of "C[C@H]1[C@H](NC(=O)/C(=N\OC(C)(C)C(=O)O)c2csc(N)n2)C(=O)N1S(=O)(=O)O" and report it.
Found: 4000

Lookup: Look up MIC of "C[C@@H](O)[C@H]1C(=O)N2C(C(=O)O)=C(S[C@@H]3CN[C@H](C(=O)N(C)C)C3)[C@H](C)[C@H]12" and report it.
Found: 2000

// next entry
Lookup: Look up MIC of "CCN1CCN(C(=O)N[C@@H](C(=O)N[C@@H]2C(=O)N3[C@@H]2SC(C)(C)[C@@H]3C(=O)O)c2ccccc2)C(=O)C1=O" and report it.
Found: 8000
